species: Rattus norvegicus; assay: Selectivity for rat adenosine A1 receptor over rat adenosine A2A receptor
parameter.measured: Ratio Ki

Guide cases for Ratio Ki, answers given:
CCCn1c(=O)c2c(nc3n2CCCN3Cc2cccc(OC)c2)n(CCC)c1=O :: 6.28
CCCn1c(=O)c2c(nc3n2CCCN3Cc2ccc(Cl)cc2)n(CCC)c1=O :: 3.6
CCCn1c(=O)c2c(nc3n2CCCN3Cc2ccccc2Cl)n(CCC)c1=O :: 3.6

P = CCCn1c(=O)c2c(nc3n2CCCN3Cc2ccc(C)cc2)n(CCC)c1=O
Q = CCCn1c(=O)c2c(nc3n2CCCN3Cc2ccc(F)cc2)n(CCC)c1=O
Asked: Short answer wanted: higher Ratio Ki, P or Q ? Use the label to indicate which entry you chose.
Given back: Q
(Q: 4.8, P: 0.73)
